Tested on: IGROV-1
Measurement notes: NCI tumour cell line growth inhibition, 48 h
Active and inactive are the calls of the source. No stated cut-off is given here; in the data, active = GI50 up to about 1.1 µM and inactive = higher.
So I've got a bunch of compounds here, and I need their GI50 values.

Task: API: value(readout=GI50, system=IGROV-1) for record `Cc1nc2ccccc2n1CCc1nc2ccccc2[nH]1`
Result: > 100 µM (inactive)

Task: API: value(readout=GI50, system=IGROV-1) for record `CSc1ccc2c(cc1=O)[C@@H](NC(=O)c1cccc([N+](=O)[O-])c1)CCc1cc(O)c(O)c(O)c1-2`
Result: 46.2 µM (inactive)

Task: API: value(readout=GI50, system=IGROV-1) for record `CSS(C)(=O)=O`
Result: 23.2 µM (inactive)

Task: API: value(readout=GI50, system=IGROV-1) for record `COC(=O)/C=C/c1ccc2c(c1)CC1(Cc3ccccc3C1)C2`
Result: > 100 µM (inactive)

Task: API: value(readout=GI50, system=IGROV-1) for record COc1cc(C(=O)C2CC3(CCC2(O)c2cc(OC)c(OC)c(OC)c2)CC(=O)Nc2ccccc2C3=O)cc(OC)c1OC (centres undefined)
Result: > 100 µM (inactive)

Task: API: value(readout=GI50, system=IGROV-1) for record CCCCOC(C)(C)/C=C/C(O)[C@](C)(O)[C@H]1[C@H](O)C[C@@]2(C)[C@@H]3CCc4c(cc(OC5OC(CO)C(O)C(O)C5O)c(O)c4C)C3(C)C(=O)C[C@]12C (some centres undefined)
Result: > 100 µM (inactive)

Task: API: value(readout=GI50, system=IGROV-1) for record NC(=O)NC(=O)C1CCCCC1C(=O)O (centres undefined)
Result: > 100 µM (inactive)

Task: API: value(readout=GI50, system=IGROV-1) for record CCOC(=O)CNC(=O)C(CSCc1ccc(Br)cc1)NC(=O)CCC(N)C(=O)OCC (centres undefined)
Result: > 50 µM (inactive)

Task: API: value(readout=GI50, system=IGROV-1) for record `Oc1ccc(C(=C(Br)c2ccccc2)c2ccc(O)cc2)cc1`
Result: 4.45 µM (inactive)

Task: API: value(readout=GI50, system=IGROV-1) for record `COc1cc(C/C=C/c2ccccc2)c(OC)cc1O`
Result: 18.3 µM (inactive)

Task: API: value(readout=GI50, system=IGROV-1) for record `O=C(/C=C/c1ccccc1)NNC(=O)c1c(Cl)c(Cl)c(Cl)c(Cl)c1-c1nc2ccccc2[nH]1`
Result: 6.49 µM (inactive)

Task: API: value(readout=GI50, system=IGROV-1) for record COC(=O)[C@H](Cc1ccccc1)NP(=O)(O)OCC1C=CC(n2cc(C)c(=O)[nH]c2=O)O1 (some centres undefined)
Result: > 100 µM (inactive)

Task: API: value(readout=GI50, system=IGROV-1) for record `Cc1ccc(Oc2ccc(C(=O)c3cccc(C(=O)c4ccc(Oc5ccc(C)cc5)cc4)n3)cc2)cc1`
Result: > 100 µM (inactive)

Task: API: value(readout=GI50, system=IGROV-1) for record CC(NNC(=O)c1cc[n+]([BH2-]C#N)cc1)c1ccc(Cl)cc1Cl (centres undefined)
Result: 51.8 µM (inactive)

Task: API: value(readout=GI50, system=IGROV-1) for record `Cc1c(S(=O)(=O)c2ccccc2)c(N)n(CCN(C)C)c1C`
Result: > 100 µM (inactive)

Task: API: value(readout=GI50, system=IGROV-1) for record `CC(=O)NNc1nc(C)c(C(/C=C/c2ccc(Cl)cc2)=N\NS(=O)(=O)c2ccc(C)cc2)s1`
Result: > 100 µM (inactive)

Task: API: value(readout=GI50, system=IGROV-1) for record COC(=O)C1=C(C)N2CCOC2CC1c1ccccc1 (centres undefined)
Result: > 100 µM (inactive)

Task: API: value(readout=GI50, system=IGROV-1) for record CC(C)c1oc(=O)cc2c1C(O)C1OC(=O)C3(C)C(O)C4OC4C2(C)C13 (centres undefined)
Result: 2.75 µM (inactive)

Task: API: value(readout=GI50, system=IGROV-1) for record CCCCCCCCCCCCCCCCCCNc1ccn(C2OC(COP(=O)(O)OCC3OC(n4ccc(N)nc4=O)C(O)C3O)C(O)C2O)c(=O)n1 (centres undefined)
Result: 30.3 µM (inactive)

Every entry's value here was drawn from ChEMBL document CHEMBL1201862.
